Entry source: patent US20120316071A1

Target: T1, Recombinant Human DLL4 (delta-like protein 4) (human, UniProt Q9NR61 27-524)
T1 construct: also called rHuman DLL4; Delta-like 4
Assay: ELISA, DLL4 coated on plate, Fab at 100 nM
metric_name: ELISA Signal-blank (100 nM Fab)
Returns: the value as a bare number; no unit string appended.

[
  {
    "binder": "Fab VH5-51_IGHD5-18*01>3_IGHJ4*01 G100K/G104T G24T/S28R/G35V & V3-4_IGLJ1*01 V91L/S96P T53H (Fab, V domains shown, Fab expressed in E. coli; heavy chain vector adds CH1 with His6 and Flag tags, light chain vector adds lambda CL; also called H:KT TRV & L:LP T53H) VH: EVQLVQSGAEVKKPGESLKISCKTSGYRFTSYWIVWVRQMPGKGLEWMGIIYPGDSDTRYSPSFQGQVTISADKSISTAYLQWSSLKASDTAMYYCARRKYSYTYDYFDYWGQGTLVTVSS VL: QTVVTQEPSFSVSPGGTVTLTCGLSSGSVSTSYYPSWYQQTPGQAPRTLIYSHNTRSSGVPDRFSGSILGNKAALTITGAQADDESDYYCLLYMGPGISYVFGTGTKVTVL",
    "observed_value": 0.14
  },
  {
    "binder": "Fab VH5-51_IGHD5-18*01>3_IGHJ4*01 G100K/G104T G24T/S28R/G35V & V3-4_IGLJ1*01 V91L/S96P S52V (Fab, V domains shown, Fab expressed in E. coli; heavy chain vector adds CH1 with His6 and Flag tags, light chain vector adds lambda CL; also called H:KT TRV & L:LP S52V) VH: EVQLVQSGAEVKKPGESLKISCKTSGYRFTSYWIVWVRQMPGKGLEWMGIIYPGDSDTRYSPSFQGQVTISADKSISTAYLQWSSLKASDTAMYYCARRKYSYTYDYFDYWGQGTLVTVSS VL: QTVVTQEPSFSVSPGGTVTLTCGLSSGSVSTSYYPSWYQQTPGQAPRTLIYVTNTRSSGVPDRFSGSILGNKAALTITGAQADDESDYYCLLYMGPGISYVFGTGTKVTVL",
    "observed_value": 0.44
  }
]

Alright, here's another binder for you.
Report ELISA Signal-blank (100 nM Fab), nothing else, for this binder: Fab VH5-51_IGHD5-18*01>3_IGHJ4*01 G100K/G104T G24T/S28R/G35V & V3-4_IGLJ1*01 V91L/S96P S52I (Fab, V domains shown, Fab expressed in E. coli; heavy chain vector adds CH1 with His6 and Flag tags, light chain vector adds lambda CL; also called H:KT TRV & L:LP S52I) VH: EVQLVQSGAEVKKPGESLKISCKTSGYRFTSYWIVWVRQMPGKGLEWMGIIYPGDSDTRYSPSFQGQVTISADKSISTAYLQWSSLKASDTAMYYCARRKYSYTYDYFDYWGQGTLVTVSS VL: QTVVTQEPSFSVSPGGTVTLTCGLSSGSVSTSYYPSWYQQTPGQAPRTLIYITNTRSSGVPDRFSGSILGNKAALTITGAQADDESDYYCLLYMGPGISYVFGTGTKVTVL 0.42
